# assayed system: BChE from equine serum (Equus caballus, UniProt P81908)
# Construct: BChE (from equine serum); purchased Sigma, St. Louis, MO, USA; host or cells: equine serum
# Sequence (P81908 whole entry): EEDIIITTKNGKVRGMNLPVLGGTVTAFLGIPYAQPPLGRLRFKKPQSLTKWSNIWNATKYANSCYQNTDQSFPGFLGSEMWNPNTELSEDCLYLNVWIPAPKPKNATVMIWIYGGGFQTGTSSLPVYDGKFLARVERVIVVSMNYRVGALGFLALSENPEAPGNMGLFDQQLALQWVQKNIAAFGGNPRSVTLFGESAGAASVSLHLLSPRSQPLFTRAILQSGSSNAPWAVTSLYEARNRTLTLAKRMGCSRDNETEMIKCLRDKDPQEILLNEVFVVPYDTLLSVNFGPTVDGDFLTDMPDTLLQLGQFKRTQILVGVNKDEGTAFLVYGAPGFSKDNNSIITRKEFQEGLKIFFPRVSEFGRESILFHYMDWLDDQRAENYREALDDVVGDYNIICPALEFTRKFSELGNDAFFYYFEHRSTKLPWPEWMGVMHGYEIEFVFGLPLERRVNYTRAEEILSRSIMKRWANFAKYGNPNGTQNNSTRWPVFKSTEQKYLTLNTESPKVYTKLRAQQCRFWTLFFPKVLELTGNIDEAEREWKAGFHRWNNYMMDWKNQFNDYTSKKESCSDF
# method notes: In vitro BChE inhibition, modified Ellman's method
# Assay type: biochemical
# measurement parameters: higher value = higher selectivity to BChE
test readout: SI (index selectivity) = IC50 (AChE)/IC50 (BChE)
Would you mind answering with just the numeric figure?

Would you please look over these solved cases?
CCC(C(=O)c1ccccc1)N(CC)C(=O)OC (stereo not shown) :: 0.75
CC(C(=O)c1ccc(Cl)cc1)N(C)C(=O)Oc1ccccc1 (stereo not shown) :: 1.14
Cc1cccc(C(=O)C(C)N(C)C(=O)OCc2ccccc2)c1 (stereo not shown) :: 6.67
CC(C(=O)c1cccc(Cl)c1)N(C)C(=O)Oc1ccccc1 (stereo not shown) :: 7.35
COC(=O)N(C)C(C)C(=O)c1cccc2ccccc12 (stereo not shown) :: 0.84
CCC(C(=O)c1ccccc1)N(C)C(=O)Oc1ccccc1 (stereo not shown) :: 3.38
CCN(C(=O)Oc1ccccc1)C(C)C(=O)c1ccccc1 (stereo not shown) :: 6.03
CC(C(=O)c1ccc(Br)c2ccccc12)N(C)C(=O)OCc1ccccc1 (stereo not shown) :: 0.54

# input compound: COC(=O)N(C)C(C)C(=O)c1ccc2c(c1)OCO2 (stereo not shown) ; wanted: its SI (index selectivity) = IC50 (AChE)/IC50 (BChE) 1.16

Ok, now COC(=O)N(C)C(C)C(=O)c1ccc(OC)cc1 (stereo not shown) 0.79

====

# assayed system: BChE from equine serum (Equus caballus, UniProt P81908)
# Construct: BChE (from equine serum); purchased Sigma, St. Louis, MO, USA; host or cells: equine serum
# method notes: In vitro BChE inhibition, modified Ellman's method
# Type: biochemical
# measurement parameters: higher value = higher selectivity to BChE
Quick list: SI (index selectivity) = IC50 (AChE)/IC50 (BChE) per entry.
Would you mind answering with just the numeric figure?

Would you please look over these solved cases?
CCN(C(=O)OCc1ccccc1)C(C)C(=O)c1ccccc1 (stereo not drawn) :: 13.93
COc1ccc(C(=O)C(C)N(C)C(=O)Oc2ccccc2)cc1 (stereo not drawn) :: 0.85
Cc1ccc(C(=O)C(C)N(C)C(=O)Oc2ccccc2)cc1 (stereo not drawn) :: 1.58
CC(C(=O)c1cccc2ccccc12)N(C)C(=O)Oc1ccccc1 (stereo not drawn) :: 7.83
CCCC(C(=O)c1ccccc1)N(C)C(=O)Oc1ccccc1 (stereo not drawn) :: 5.92

Now for the compound whose SI (index selectivity) = IC50 (AChE)/IC50 (BChE) we want.
# input compound: CCC(C(=O)c1ccccc1)N(C)C(=O)OC (stereo not drawn) ; wanted: its SI (index selectivity) = IC50 (AChE)/IC50 (BChE) 0.75

====

Quick list: SI (index selectivity) = IC50 (AChE)/IC50 (BChE) per entry.
# assayed system: BChE from equine serum (Equus caballus, UniProt P81908)
# Construct: BChE (from equine serum); purchased Sigma, St. Louis, MO, USA; host or cells: equine serum
# method notes: In vitro BChE inhibition, modified Ellman's method
# Type: biochemical
# measurement parameters: higher value = higher selectivity to BChE
Would you mind answering with just the numeric figure?

Would you please look over these solved cases?
COC(=O)N(C)C(C)C(=O)c1cccc(C)c1 (centres unmarked) :: 1.16
Cc1cccc(C(=O)C(C)N(C)C(=O)Oc2ccccc2)c1 (centres unmarked) :: 3.43

# input molecule: CC(C(=O)c1ccc(Br)c2ccccc12)N(C)C(=O)Oc1ccccc1 (centres unmarked) ; wanted: its SI (index selectivity) = IC50 (AChE)/IC50 (BChE) 4.76

Ok, now CC(C(=O)c1ccc(Br)cc1)N(C)C(=O)Oc1ccccc1 (centres unmarked) 1.17

Ok, now COc1ccc(C(=O)C(C)N(C)C(=O)OCc2ccccc2)cc1 (centres unmarked) 1.09

====

Parameter 'readout' = IC50; parameter 'system' = AChE from electric eel (Electrophorus electricus).
Sequence (O42275 24-633): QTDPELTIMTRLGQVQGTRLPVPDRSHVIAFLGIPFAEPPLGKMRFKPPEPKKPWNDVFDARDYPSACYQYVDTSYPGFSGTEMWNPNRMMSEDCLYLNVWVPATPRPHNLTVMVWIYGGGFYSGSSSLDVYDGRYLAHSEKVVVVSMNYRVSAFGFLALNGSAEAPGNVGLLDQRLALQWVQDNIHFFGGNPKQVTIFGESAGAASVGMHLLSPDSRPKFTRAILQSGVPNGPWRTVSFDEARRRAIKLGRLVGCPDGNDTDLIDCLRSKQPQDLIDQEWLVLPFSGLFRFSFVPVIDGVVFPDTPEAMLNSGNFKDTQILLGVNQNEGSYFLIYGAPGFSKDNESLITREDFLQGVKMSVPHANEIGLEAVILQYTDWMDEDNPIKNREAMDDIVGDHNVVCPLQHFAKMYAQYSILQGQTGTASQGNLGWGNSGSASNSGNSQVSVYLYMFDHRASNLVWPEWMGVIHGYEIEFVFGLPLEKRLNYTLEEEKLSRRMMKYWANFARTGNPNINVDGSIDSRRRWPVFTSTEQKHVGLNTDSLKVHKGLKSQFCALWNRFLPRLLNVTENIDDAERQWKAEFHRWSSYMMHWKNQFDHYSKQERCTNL
Your answer is read as µM, so omit the unit and give the number.

Would you please look over these solved cases?
Cc1cccc(C(=O)C(C)N(C)C(=O)Oc2ccccc2)c1 (centres unmarked) [Compound 15] :: 166
COC(=O)N(C)C(C)C(=O)c1cccc2ccccc12 (centres unmarked) [Compound 35] :: 127
COC(=O)N(C)C(C)C(=O)c1ccc2c(c1)OCO2 (centres unmarked) [Compound 10] :: 225

# input compound: CC(C(=O)c1ccc2c(c1)OCO2)N(C)C(=O)Oc1ccccc1 (centres unmarked) [Compound 22] ; wanted: its IC50 84

Ok, now Cc1ccc(C(=O)C(C)N(C)C(=O)Oc2ccccc2)cc1 (centres unmarked) [Compound 18] 139

====

# assayed system: BChE from equine serum (Equus caballus, UniProt P81908)
# Construct: BChE (from equine serum)
# method notes: In vitro BChE inhibition, modified Ellman's method
Quick list: IC50 per entry.
Your answer is read as µM, so omit the unit and give the number.

Would you please look over these solved cases?
CCC(C(=O)c1ccccc1)N(CC)C(=O)OC (stereo not shown) :: 363
COC(=O)N(C)C(C)C(=O)c1cccc(Cl)c1 (stereo not shown) :: 114
COc1ccc(C(=O)C(C)N(C)C(=O)Oc2ccccc2)cc1 (stereo not shown) :: 106
COC(=O)N(C)C(C)C(=O)c1ccc(Br)cc1 (stereo not shown) :: 224
CC(C(=O)c1ccc2c(c1)OCO2)N(C)C(=O)Oc1ccccc1 (stereo not shown) :: 53.6
CC(C(=O)c1ccc(Br)cc1)N(C)C(=O)OCc1ccccc1 (stereo not shown) :: 11.3
CC(C(=O)c1ccc(Cl)c2ccccc12)N(C)C(=O)Oc1ccccc1 (stereo not shown) :: 13.5
CCC(C(=O)c1ccccc1)N(C)C(=O)OCc1ccccc1 (stereo not shown) :: 21.4

# input compound: CC(C(=O)c1cccc(Cl)c1)N(C)C(=O)Oc1ccccc1 (stereo not shown) ; wanted: its IC50 14.8

Ok, now CCCC(C(=O)c1ccccc1)N(C)C(=O)OCc1ccccc1 (stereo not shown) 16.3

====

Parameter 'readout' = pIC50; parameter 'system' = AChE from electric eel (Electrophorus electricus).
Notebook: values listed as pIC50 are -log10 of the concentration (mol/L).

Would you please look over these solved cases?
COc1ccc(C(=O)C(C)N(C)C(=O)OCc2ccccc2)cc1 (stereo not shown) [Compound 29] :: 4.20
COC(=O)N(C)C(C)C(=O)c1ccc(Cl)cc1 (stereo not shown) [Compound 8] :: 3.51

# input molecule: CCC(C(=O)c1ccccc1)N(C)C(=O)OCc1ccccc1 (stereo not shown) [Compound 24] ; wanted: its pIC50 3.98

Ok, now CCC(C(=O)c1ccccc1)N(CC)C(=O)OC (stereo not shown) [Compound 3] 3.56

Ok, now COc1ccc(C(=O)C(C)N(C)C(=O)Oc2ccccc2)cc1 (stereo not shown) [Compound 17] 4.04

Ok, now COC(=O)N(C)C(C)C(=O)c1cccc(Cl)c1 (stereo not shown) [Compound 5] 3.48

Ok, now CC(C(=O)c1ccc(Br)cc1)N(C)C(=O)OCc1ccccc1 (stereo not shown) [Compound 32] 4.49

Ok, now CC(C(=O)c1ccc2c(c1)OCO2)N(C)C(=O)OCc1ccccc1 (stereo not shown) [Compound 34] 4.12

Ok, now CC(C(=O)c1ccc(Cl)c2ccccc12)N(C)C(=O)OCc1ccccc1 (stereo not shown) [Compound 40] 3.99

Ok, now CC(C(=O)c1ccc(Cl)cc1)N(C)C(=O)OCc1ccccc1 (stereo not shown) [Compound 31] 4.28

====

# assayed system: BChE from equine serum (Equus caballus, UniProt P81908)
# Construct: BChE (from equine serum); purchased Sigma, St. Louis, MO, USA; host or cells: equine serum
# method notes: In vitro BChE inhibition, modified Ellman's method
# Type: biochemical
# measurement parameters: higher value = higher selectivity to BChE
test readout: SI (index selectivity) = IC50 (AChE)/IC50 (BChE)
Would you mind answering with just the numeric figure?

Cc1ccc(C(=O)C(C)N(C)C(=O)OCc2ccccc2)cc1 (centres unmarked) [Compound 30] :: 1.52
Cc1ccc(C(=O)C(C)N(C)C(=O)OCc2ccccc2)cc1C (centres unmarked) [Compound 33] :: 4.55
CC(C(=O)c1ccc2c(c1)OCO2)N(C)C(=O)Oc1ccccc1 (centres unmarked) [Compound 22] :: 1.57

# input compound: COC(=O)N(C)C(C)C(=O)c1cccc(Cl)c1 (centres unmarked) [Compound 5] ; wanted: its SI (index selectivity) = IC50 (AChE)/IC50 (BChE) 2.90

Ok, now CC(C(=O)c1ccc(Cl)c2ccccc12)N(C)C(=O)OCc1ccccc1 (centres unmarked) [Compound 40] 2.42

Ok, now CCCC(C(=O)c1ccccc1)N(C)C(=O)OCc1ccccc1 (centres unmarked) [Compound 26] 8.26

Ok, now CC(C(=O)c1cccc(Cl)c1)N(C)C(=O)OCc1ccccc1 (centres unmarked) [Compound 28] 15.31

Ok, now Cc1ccc(C(=O)C(C)N(C)C(=O)Oc2ccccc2)cc1C (centres unmarked) [Compound 21] 1.82

Ok, now CC(C(=O)c1cccc2ccccc12)N(C)C(=O)OCc1ccccc1 (centres unmarked) [Compound 39] 5.55
